pIC50 by entry:
- Assayed Target: Protein kinase A (catalytic subunit, from bovine heart) (Bos taurus, UniProt P00517)
- Construct: Protein kinase A (catalytic subunit, from bovine heart); purchased; host or cells: bovine heart
- Procedure Text: Protein kinase A inhibition, TCA precipitation assay
- Assay type: biochemical
- Experimental Setup: 12 μM ATP, Histone H1; read-out: PKA
pIC50: −log10 of the molar value.
Quantity: pIC50

>>> reported_measurement("CCCN(CCOc1ccc(-c2[nH]nc3c2C(=O)c2c(NC(=O)NN4CCOCC4)cccc2-3)cc1)CC1CC1 [G]")
"< 5.00"
>>> reported_measurement("CC(C)c1nn(-c2c(Cl)cccc2Cl)c2nc(Cc3ccc(O)c(CN4CCN(C(C)C)CC4)c3)[nH]c(=O)c12 [Compound C]")
"< 5.00"
>>> reported_measurement("CC(C)N1CCN(CCOc2ccc(-c3[nH]nc4c3C(=O)c3c(NC(=O)NN5CCOCC5)cccc3-4)cc2)CC1 [E]")
"> 5.00"

---

- Assayed Target: Cdc2/cyclin B (Homo sapiens, UniProt P06493)
- Sequence (P06493 whole entry, species assumed): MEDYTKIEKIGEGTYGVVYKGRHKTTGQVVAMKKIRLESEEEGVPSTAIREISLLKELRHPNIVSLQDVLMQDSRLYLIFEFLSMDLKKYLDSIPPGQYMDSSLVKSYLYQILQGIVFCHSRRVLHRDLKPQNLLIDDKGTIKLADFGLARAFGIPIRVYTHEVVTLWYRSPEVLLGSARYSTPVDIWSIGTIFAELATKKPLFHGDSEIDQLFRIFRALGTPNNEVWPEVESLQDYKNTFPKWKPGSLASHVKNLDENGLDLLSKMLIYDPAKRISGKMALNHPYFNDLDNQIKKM
- Sequence (P14635 whole entry partner, species assumed): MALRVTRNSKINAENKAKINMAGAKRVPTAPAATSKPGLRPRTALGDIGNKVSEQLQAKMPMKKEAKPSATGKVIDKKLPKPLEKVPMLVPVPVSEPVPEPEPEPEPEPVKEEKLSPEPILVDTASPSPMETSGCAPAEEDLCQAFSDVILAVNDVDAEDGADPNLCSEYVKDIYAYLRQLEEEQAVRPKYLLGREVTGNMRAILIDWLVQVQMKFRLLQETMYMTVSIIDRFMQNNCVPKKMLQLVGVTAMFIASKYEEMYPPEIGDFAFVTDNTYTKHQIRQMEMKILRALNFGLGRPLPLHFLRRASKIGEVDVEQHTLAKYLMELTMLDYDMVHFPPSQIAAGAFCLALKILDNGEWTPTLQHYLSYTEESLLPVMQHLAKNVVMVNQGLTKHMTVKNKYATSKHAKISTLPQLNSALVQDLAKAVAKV
- Procedure Text: Cdc2/cyclin B inhibition, TCA precipitation assay
- Experimental Setup: 50 μM ATP, Histone H1 substrate
# IC50 values compiled below
Quantity: IC50

>>> reported_measurement("CCCN(CCOc1ccc(-c2[nH]nc3c2C(=O)c2c(NC(=O)NN4CCOCC4)cccc2-3)cc1)CC1CC1")
"< 100 nM"
>>> reported_measurement("CC(C)N1CCN(CCOc2ccc(-c3[nH]nc4c3C(=O)c3c(NC(=O)NN5CCOCC5)cccc3-4)cc2)CC1")
"< 100 nM"
>>> reported_measurement("CC(C)c1nn(-c2c(Cl)cccc2Cl)c2nc(Cc3ccc(OP(=O)(O)O)cc3)[nH]c(=O)c12")
"< 100 nM"
>>> reported_measurement("CC(C)c1nn(-c2c(Cl)cc(Cl)cc2Cl)c2nc(Cc3ccc(OCCN4CCOCC4)cc3)[nH]c(=O)c12")
"< 1000 nM"
>>> reported_measurement("Cc1cc(OCCN2CCCC2)ccc1-c1[nH]nc2c1C(=O)c1c(NC(=O)NN3CCN(C)CC3)cccc1-2")
"< 100 nM"
>>> reported_measurement("CN1CCN(NC(=O)Nc2cccc3c2C(=O)c2c-3n[nH]c2-c2ccc(OCCN(CCO)CCO)cc2)CC1")
"< 10 nM"
>>> reported_measurement("CC(C)c1nn(-c2c(Cl)cccc2Cl)c2nc(Cc3ccc(O)c(CN4CCN(C(C)C)CC4)c3)[nH]c(=O)c12")
"< 1000 nM"
>>> reported_measurement("O=C(Nc1cccc2c1C(=O)c1c-2n[nH]c1-c1ccc(OCCN(CCO)CCO)cc1)NN1CCOCC1")
"< 100 nM"
>>> reported_measurement("CC(C)c1nn(-c2c(Cl)cc(Cl)cc2Cl)c2nc(Cc3ccc(NS(=O)(=O)CCCN4CCOCC4)cc3)[nH]c(=O)c12")
"< 1000 nM"
>>> reported_measurement("O=C(Nc1cccc2c1C(=O)c1c-2n[nH]c1-c1ccc(OCCN2CCCC2)cc1)NN1CCOCC1")
"< 100 nM"
>>> reported_measurement("CN1CCN(NC(=O)Nc2cccc3c2C(=O)c2c-3n[nH]c2-c2ccc(OCCN3CCOCC3)cc2)CC1")
"< 100 nM"
>>> reported_measurement("CN1CCN(NC(=O)Nc2cccc3c2C(=O)c2c-3n[nH]c2-c2ccc(OCCN3CCCC3)cc2)CC1")
"< 100 nM"

---

Measured IC50 by item
- Assayed Target: CDK2/cyclinE (Homo sapiens, UniProt P24941)
- Procedure Text: Cdk2/cyclin E inhibition, glutathione-sepharose capture assay
- Experimental Setup: 50 μM ATP, GST-Rb substrate; read-out: K2/E
- Procedure: Enzymes: Cdc2/cyclin B was obtained from commercial sources. Cdk2/his-cyclin Eshort was expressed in Sf9 cells. Cdk2/cyclin A, cdk4/cyclin D1, and cdk6/cyclin D2 were expressed in Sf9 cells. […] Cdk2/cyclin E, Cdk4/cyclin D1, and Cdk6/cyclin D2 activity was determined using a glutathione-sepharose capture assay. […] The background radioactivity, determined in an experiment containing 50 mM disodium ethylenediamine tetraacetate in place of compound, was subtracted from all results before calculations.
Quantity: IC50

>>> reported_measurement("CN1CCN(NC(=O)Nc2cccc3c2C(=O)c2c-3n[nH]c2-c2ccc(OCCN3CCC[C@H]3CO)cc2)CC1 [M]")
"< 100 nM"
>>> reported_measurement("CN1CCN(NC(=O)Nc2cccc3c2C(=O)c2c-3n[nH]c2-c2ccc(OCCN3CCOCC3)cc2)CC1 [Q]")
"< 10 nM"
>>> reported_measurement("CCCN(CCOc1ccc(-c2[nH]nc3c2C(=O)c2c(NC(=O)NN4CCOCC4)cccc2-3)cc1)CC1CC1 [G]")
"< 100 nM"
>>> reported_measurement("CC(C)c1nn(-c2c(Cl)cc(Cl)cc2Cl)c2nc(Cc3ccc(OCCN4CCOCC4)cc3)[nH]c(=O)c12 [A]")
"< 100 nM"
>>> reported_measurement("CN1CCN(NC(=O)Nc2cccc3c2C(=O)c2c-3n[nH]c2-c2ccc(OCCN(CCO)CCO)cc2)CC1 [N]")
"< 100 nM"
>>> reported_measurement("Cc1cc(OCCN2CCCC2)ccc1-c1[nH]nc2c1C(=O)c1c(NC(=O)NN3CCN(C)CC3)cccc1-2 [L]")
"< 100 nM"
>>> reported_measurement("CC(C)N1CCN(CCOc2ccc(-c3[nH]nc4c3C(=O)c3c(NC(=O)NN5CCOCC5)cccc3-4)cc2)CC1 [E]")
"< 10 nM"
>>> reported_measurement("CN1CCN(NC(=O)Nc2cccc3c2C(=O)c2c-3n[nH]c2-c2ccc(OCCN3CC[C@H](O)C3)cc2)CC1 [O]")
"< 100 nM"

---

Entries below carry reported pIC50 on c-Abl (Homo sapiens).
Sequence (P00519 whole entry): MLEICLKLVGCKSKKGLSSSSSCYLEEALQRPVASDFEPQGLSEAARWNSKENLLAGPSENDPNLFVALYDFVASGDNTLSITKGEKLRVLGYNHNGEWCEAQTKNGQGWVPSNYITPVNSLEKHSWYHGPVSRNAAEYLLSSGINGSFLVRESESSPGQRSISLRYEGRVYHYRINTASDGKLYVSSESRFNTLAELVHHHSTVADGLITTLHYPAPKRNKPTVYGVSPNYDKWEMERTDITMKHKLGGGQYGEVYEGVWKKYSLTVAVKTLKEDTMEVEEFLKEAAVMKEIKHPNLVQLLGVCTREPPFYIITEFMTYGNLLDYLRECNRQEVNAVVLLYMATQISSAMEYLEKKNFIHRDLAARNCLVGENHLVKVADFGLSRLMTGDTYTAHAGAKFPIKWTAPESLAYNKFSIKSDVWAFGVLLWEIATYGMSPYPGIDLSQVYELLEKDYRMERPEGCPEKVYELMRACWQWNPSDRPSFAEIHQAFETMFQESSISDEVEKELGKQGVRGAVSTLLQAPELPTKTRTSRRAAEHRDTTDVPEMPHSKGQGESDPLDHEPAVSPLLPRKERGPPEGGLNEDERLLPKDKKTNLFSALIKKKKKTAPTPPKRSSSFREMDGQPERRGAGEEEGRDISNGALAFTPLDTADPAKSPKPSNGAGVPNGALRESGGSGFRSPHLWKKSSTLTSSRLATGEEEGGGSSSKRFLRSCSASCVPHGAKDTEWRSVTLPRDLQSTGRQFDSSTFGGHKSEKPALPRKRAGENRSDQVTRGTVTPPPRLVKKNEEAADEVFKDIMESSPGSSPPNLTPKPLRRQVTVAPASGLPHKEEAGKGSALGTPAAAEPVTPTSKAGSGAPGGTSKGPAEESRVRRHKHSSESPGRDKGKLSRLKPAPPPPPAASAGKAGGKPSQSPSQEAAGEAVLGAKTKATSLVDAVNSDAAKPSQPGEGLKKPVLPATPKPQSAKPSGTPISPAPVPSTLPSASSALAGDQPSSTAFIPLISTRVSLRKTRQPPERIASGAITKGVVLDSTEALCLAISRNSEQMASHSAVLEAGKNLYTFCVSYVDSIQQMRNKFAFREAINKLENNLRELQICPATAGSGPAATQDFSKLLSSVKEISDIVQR
pIC50: −log10 of the molar value.
Quantity: pIC50

>>> reported_measurement("CC(C)N1CCN(CCOc2ccc(-c3[nH]nc4c3C(=O)c3c(NC(=O)NN5CCOCC5)cccc3-4)cc2)CC1 [E]")
"> 5.00"
>>> reported_measurement("CCCN(CCOc1ccc(-c2[nH]nc3c2C(=O)c2c(NC(=O)NN4CCOCC4)cccc2-3)cc1)CC1CC1 [G]")
"< 5.00"
>>> reported_measurement("CC(C)c1nn(-c2c(Cl)cccc2Cl)c2nc(Cc3ccc(O)c(CN4CCN(C(C)C)CC4)c3)[nH]c(=O)c12 [Compound C]")
"< 5.00"

---

// pIC50 lookup, one value per entry
- Assayed Target: Cdk6/cyclin D2 (Homo sapiens)
- Sequence (Q00534 whole entry, species assumed): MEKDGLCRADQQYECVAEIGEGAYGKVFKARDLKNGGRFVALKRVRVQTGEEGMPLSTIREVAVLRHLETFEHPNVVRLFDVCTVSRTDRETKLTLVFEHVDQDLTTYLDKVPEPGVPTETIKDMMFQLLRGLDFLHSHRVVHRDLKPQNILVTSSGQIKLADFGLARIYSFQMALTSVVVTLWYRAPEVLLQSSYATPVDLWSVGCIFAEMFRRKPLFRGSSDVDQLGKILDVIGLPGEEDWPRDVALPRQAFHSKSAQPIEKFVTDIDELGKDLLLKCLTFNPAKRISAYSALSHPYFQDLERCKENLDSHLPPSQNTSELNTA
- Sequence (P30279 whole entry partner, species assumed): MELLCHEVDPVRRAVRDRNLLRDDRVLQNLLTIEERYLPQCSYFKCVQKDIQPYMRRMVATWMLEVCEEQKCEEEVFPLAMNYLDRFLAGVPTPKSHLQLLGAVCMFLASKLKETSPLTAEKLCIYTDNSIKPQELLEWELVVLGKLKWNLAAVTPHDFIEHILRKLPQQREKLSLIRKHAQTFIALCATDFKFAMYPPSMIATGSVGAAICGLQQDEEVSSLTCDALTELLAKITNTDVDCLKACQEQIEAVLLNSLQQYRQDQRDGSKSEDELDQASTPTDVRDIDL
- Procedure Text: Cdk6/cyclin D2 inhibition, glutathione-sepharose capture assay
- Experimental Setup: 50 μM ATP, GST-Rb substrate; read-out: K6/D2
pIC50: −log10 of the molar value.
Quantity: pIC50

>>> reported_measurement("CN1CCN(NC(=O)Nc2cccc3c2C(=O)c2c-3n[nH]c2-c2ccc(OCCN3CCOCC3)cc2)CC1 [Q]")
"> 7.00"
>>> reported_measurement("CN1CCN(NC(=O)Nc2cccc3c2C(=O)c2c-3n[nH]c2-c2ccc(OCCN3CCCC3)cc2)CC1 [F]")
"> 8.00"
>>> reported_measurement("CC(C)c1nn(-c2c(Cl)cc(Cl)cc2Cl)c2nc(Cc3ccc(OCCN4CCOCC4)cc3)[nH]c(=O)c12 [A]")
"> 6.00"
>>> reported_measurement("CC(C)N1CCN(CCOc2ccc(-c3[nH]nc4c3C(=O)c3c(NC(=O)NN5CCOCC5)cccc3-4)cc2)CC1 [E]")
"> 8.00"

---

- Assayed Target: Cdk4/cyclin D1 (Homo sapiens, UniProt P11802)
- Construct: made in house; host or cells: Sf9 insect cells
- Sequence (P11802 whole entry, species assumed): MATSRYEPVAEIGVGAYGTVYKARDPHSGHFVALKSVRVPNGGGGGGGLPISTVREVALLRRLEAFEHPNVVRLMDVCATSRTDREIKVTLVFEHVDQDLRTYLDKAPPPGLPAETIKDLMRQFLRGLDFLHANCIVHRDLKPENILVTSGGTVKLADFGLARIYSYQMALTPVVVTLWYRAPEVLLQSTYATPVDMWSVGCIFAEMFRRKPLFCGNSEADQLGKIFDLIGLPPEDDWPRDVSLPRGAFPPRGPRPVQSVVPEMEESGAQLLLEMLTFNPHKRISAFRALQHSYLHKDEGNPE
- Sequence (P24385 whole entry partner, species assumed): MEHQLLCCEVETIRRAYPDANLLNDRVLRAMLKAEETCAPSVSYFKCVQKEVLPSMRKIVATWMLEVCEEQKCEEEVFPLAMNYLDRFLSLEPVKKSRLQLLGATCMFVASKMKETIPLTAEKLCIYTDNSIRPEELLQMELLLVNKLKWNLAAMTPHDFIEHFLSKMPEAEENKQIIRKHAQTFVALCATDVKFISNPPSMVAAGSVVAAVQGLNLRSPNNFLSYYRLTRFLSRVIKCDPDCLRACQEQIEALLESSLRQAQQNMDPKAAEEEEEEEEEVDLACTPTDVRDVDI
- Procedure Text: Cdk4/cyclin D1 inhibition, glutathione-sepharose capture assay
- Assay type: biochemical
- Experimental Setup: 50 μM ATP, GST-Rb substrate; read-out: K4/D1
Quantity: IC50

>>> reported_measurement("O=C(Nc1cccc2c1C(=O)c1c-2n[nH]c1-c1ccc(OCCN(CCO)CCO)cc1)NN1CCOCC1")
"< 0.1 µM"
>>> reported_measurement("CCCN(CCOc1ccc(-c2[nH]nc3c2C(=O)c2c(NC(=O)NN4CCOCC4)cccc2-3)cc1)CC1CC1")
"< 0.01 µM"
>>> reported_measurement("CC(C)c1nn(-c2c(Cl)cc(Cl)cc2Cl)c2nc(Cc3ccc(NS(=O)(=O)CCCN4CCOCC4)cc3)[nH]c(=O)c12")
"< 1 µM"

---

- Assayed Target: Cdk4/cyclin D1 (Homo sapiens)
- Construct: made in house; host or cells: Sf9 insect cells
- Procedure Text: Cdk4/cyclin D1 inhibition, glutathione-sepharose capture assay
- Format: biochemical
- Experimental Setup: 50 μM ATP, GST-Rb substrate; read-out: K4/D1
Quantity: IC50

>>> reported_measurement("CC(C)c1nn(-c2c(Cl)cccc2Cl)c2nc(Cc3ccc(O)c(CN4CCN(C(C)C)CC4)c3)[nH]c(=O)c12 [Compound C]")
"< 1000 nM"
>>> reported_measurement("Cc1cc(OCCN2CCCC2)ccc1-c1[nH]nc2c1C(=O)c1c(NC(=O)NN3CCN(C)CC3)cccc1-2 [L]")
"< 100 nM"
>>> reported_measurement("CC(C)N1CCN(CCOc2ccc(-c3[nH]nc4c3C(=O)c3c(NC(=O)NN5CCOCC5)cccc3-4)cc2)CC1 [E]")
"< 10 nM"
>>> reported_measurement("CN1CCN(NC(=O)Nc2cccc3c2C(=O)c2c-3n[nH]c2-c2ccc(OCCN3CCOCC3)cc2)CC1 [Q]")
"< 10 nM"
>>> reported_measurement("O=C(Nc1cccc2c1C(=O)c1c-2n[nH]c1-c1ccc(OCCN2CCCC2)cc1)NN1CCOCC1 [Compound I]")
"< 10 nM"
>>> reported_measurement("CC(C)c1nn(-c2c(Cl)cccc2Cl)c2nc(Cc3ccc(OP(=O)(O)O)cc3)[nH]c(=O)c12 [B]")
"< 10000 nM"
>>> reported_measurement("CC(C)c1nn(-c2c(Cl)cc(Cl)cc2Cl)c2nc(Cc3ccc(OCCN4CCOCC4)cc3)[nH]c(=O)c12 [A]")
"< 1000 nM"
>>> reported_measurement("CN1CCN(NC(=O)Nc2cccc3c2C(=O)c2c-3n[nH]c2-c2ccc(OCCN3CCCC3)cc2)CC1 [F]")
"< 10 nM"
